compounds and their reported DC50
assayed_system: EGFR-L858R/C797S (H1975-clone #8 cells) (Homo sapiens, UniProt P00533, C797S/L858R)
Construct: expressed in transfected cells; host or cells: H1975 (endogenous EGFR knocked out, clone #8)
Sequence (P00533 25-1210 C797S/L858R): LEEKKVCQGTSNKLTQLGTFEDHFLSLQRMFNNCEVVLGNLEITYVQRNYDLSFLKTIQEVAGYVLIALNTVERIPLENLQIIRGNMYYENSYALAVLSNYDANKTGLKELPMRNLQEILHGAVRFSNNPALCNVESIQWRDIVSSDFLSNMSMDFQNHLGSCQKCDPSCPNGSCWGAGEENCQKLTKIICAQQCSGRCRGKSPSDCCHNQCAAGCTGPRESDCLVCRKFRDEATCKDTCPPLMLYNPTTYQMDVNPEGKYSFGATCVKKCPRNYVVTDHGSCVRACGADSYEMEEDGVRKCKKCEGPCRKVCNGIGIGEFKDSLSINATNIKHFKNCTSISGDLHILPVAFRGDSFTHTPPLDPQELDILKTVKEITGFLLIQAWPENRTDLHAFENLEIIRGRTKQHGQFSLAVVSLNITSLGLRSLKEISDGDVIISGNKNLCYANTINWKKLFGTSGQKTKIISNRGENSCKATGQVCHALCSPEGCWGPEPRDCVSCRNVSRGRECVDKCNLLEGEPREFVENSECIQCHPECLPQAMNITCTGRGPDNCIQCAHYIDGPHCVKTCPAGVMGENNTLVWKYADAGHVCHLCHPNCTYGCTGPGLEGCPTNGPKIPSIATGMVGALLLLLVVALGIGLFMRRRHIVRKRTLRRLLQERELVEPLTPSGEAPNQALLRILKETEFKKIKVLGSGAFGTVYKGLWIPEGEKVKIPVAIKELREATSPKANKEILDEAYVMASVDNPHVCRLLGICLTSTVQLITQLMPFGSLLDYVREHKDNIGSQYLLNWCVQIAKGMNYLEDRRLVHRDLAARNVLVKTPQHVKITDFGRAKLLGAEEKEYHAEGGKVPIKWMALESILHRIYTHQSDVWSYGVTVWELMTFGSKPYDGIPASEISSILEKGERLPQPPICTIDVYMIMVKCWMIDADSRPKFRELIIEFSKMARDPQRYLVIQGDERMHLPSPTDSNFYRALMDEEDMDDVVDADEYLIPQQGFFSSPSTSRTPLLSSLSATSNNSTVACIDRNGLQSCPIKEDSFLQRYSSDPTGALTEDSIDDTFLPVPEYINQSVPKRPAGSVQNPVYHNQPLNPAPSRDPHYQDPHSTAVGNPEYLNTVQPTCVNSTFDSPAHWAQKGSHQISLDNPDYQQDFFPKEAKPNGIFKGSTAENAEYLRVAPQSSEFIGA
test_description: Cell degradation of EGFR, HTRF assay, H1975-clone#8 (L858R/C797S) cells
Format: cell-based
condition_description: 16 h treatment, EGFR degradation
Experimental: The EGFR over-expressed cells then underwent knockout, in which the EGFR targeting sgRNA was designed to only target the endogenous EGFR copies and preserve the exogenous EGFR copies. Followed by the knockout, the edited H1975 cells were seeded in 96 well plates at the concentration of […], cultured for about 2 weeks to allow single clones formation. […] High control=Cell group with added DMSO and without compound, indicating microplate readings without EGFR degradation; […]
experimental_readout: DC50 (nM)

>>> obs_value("Cc1cc2cc(n1)-c1cnn(C)c1OC[C@H]1CC[C@H](C1)CN1/C(=N/C2=O)Nc2ccc(N3CCN([C@@H]4CCN(c5c(C)cc(C6CCC(=O)NC6=O)nc5C)C[C@@H]4F)CC3)cc21 (stereo partly shown)")
1.4
>>> obs_value("Cc1cc2cc(n1)-c1c(C(F)F)nn(C)c1OC[C@H]1CCC(C1)CN1/C(=N/C2=O)Nc2ccc(N3CCN(C4CCN(c5c(F)cc(NC6CCC(=O)NC6=O)cc5F)CC4)CC3)cc21 (stereo partly shown)")
6
>>> obs_value("Cc1cc2cc(n1)-c1c(C)nn(C)c1OC[C@H]1CC[C@H](C1)CN1/C(=N/C2=O)Nc2ccc(N3C[C@@H](C)N(C4CCN(c5cc(F)c([C@H]6CCC(=O)NC6=O)c(F)c5)CC4)C[C@@H]3C)cc21")
1.87
>>> obs_value("Cc1cc2cc(n1)-c1cnn(C)c1OC[C@H]1CCC(C1)CN1/C(=N/C2=O)Nc2ccc(N3CC4(CCN(C5CCN(c6cc(F)c([C@H]7CCC(=O)NC7=O)c(F)c6)CC5)CC4)C3)cc21")
2.61
